meta.source: patent US20230000870A1

Provide the reported IC50 of each item.
target.entity: CDK2/Cyclin E1 complex (Homo sapiens)
procedure.details: CDK2 kinase inhibition assay (Caliper/LabChip EZ Reader)
condition.parameters: CDK2/Cyclin E1 0.5 nM, ATP 2 mM, 35 min at 27° C.

Write down IC50 measured for item O=S1(=O)CCN(c2cccc3c(-c4nc(NC5CCCNC5)ncc4Cl)c[nH]c23)CC1 (centres unmarked) [Compound 196]
0.2 to 5 µM

Write down IC50 measured for item CC(C)c1cnc(NC2CCCNC2)nc1-c1c[nH]c2ccccc12 (centres unmarked) [Compound 139]
≥ 5 µM

Write down IC50 measured for item CCP(=O)(CC)c1ccc2c(-c3nc(NC4CCCNC4)ncc3C(F)(F)F)c[nH]c2c1 (centres unmarked) [Compound 379]
≥ 5 µM

Write down IC50 measured for item FC(F)(F)c1cnc(NC2CCCNC2)nc1-c1c[nH]c2cc(-c3cnccn3)ccc12 (centres unmarked) [Compound 328]
0.2 to 5 µM

Write down IC50 measured for item N#Cc1ccc2c(-c3nc(N[C@@H]4CCC5(CCC5)NC4)ncc3C(F)(F)F)c[nH]c2c1 [Compound 377]
≥ 5 µM

Write down IC50 measured for item N#Cc1ccc2c(-c3nc(NC4CCCNC4)ncc3C(F)(F)F)c[nH]c2n1 (centres unmarked) [Compound 251]
0.2 to 5 µM

Write down IC50 measured for item CC(=O)c1cccc2c(-c3nc(NC4CCCNC4)ncc3Cl)c[nH]c12 (centres unmarked) [Compound 142]
0.2 to 5 µM

Write down IC50 measured for item CP(C)(=O)c1ccc2c(-c3nc(NC4CCCNC4)ncc3C(F)(F)F)c[nH]c2c1 (centres unmarked) [Compound 354]
≥ 5 µM

Write down IC50 measured for item CS(=O)(=O)c1c(C#N)ccc2c(-c3nc(N[C@H]4CCCNC4)ncc3C(F)(F)F)c[nH]c12 [Compound 232]
0.2 to 5 µM

Write down IC50 measured for item CNC(=O)c1cccc2c(-c3nc(NC4CCCNC4)ncc3C(F)(F)F)cn(COC)c12 (centres unmarked) [Compound 304]
≥ 5 µM

Write down IC50 measured for item CCc1cnc(NC2CCCNC2)nc1-c1n[nH]c2ncccc12 (centres unmarked) [Compound 262]
0.2 to 5 µM

Write down IC50 measured for item N#CC1CCN(C(=O)c2ccc3c(-c4nc(NC5CCCNC5)ncc4C(F)(F)F)c[nH]c3c2)C1 (centres unmarked) [Compound 292]
0.2 to 5 µM

Write down IC50 measured for item Clc1cnc(NC2CCCNC2)nc1-c1cnn2ccccc12 (centres unmarked) [Compound 104]
0.2 to 5 µM

Write down IC50 measured for item CC1(Nc2ncc(Cl)c(-c3c[nH]c4ccccc34)n2)CCCNC1 (centres unmarked) [Compound 115]
≥ 5 µM

Write down IC50 measured for item CCOP(=O)(OCC)c1cccc2c(-c3nc(NC4CCCNC4)ncc3C(F)(F)F)c[nH]c12 (centres unmarked) [Compound 168]
≥ 5 µM

Write down IC50 measured for item CNC(=O)c1ccc2c(-c3nc(NC4CCCNC4)ncc3C(F)(F)F)c[nH]c2n1 (centres unmarked) [Compound 297]
0.2 to 5 µM

Write down IC50 measured for item Clc1cnc(NC2CN3CCC2CC3)nc1-c1c[nH]c2ccccc12 (centres unmarked) [Compound 131]
≥ 5 µM

----------
target.entity: CDK7/Cyclin H/MAT1 complex (Homo sapiens)
Sequence (P50613 whole entry): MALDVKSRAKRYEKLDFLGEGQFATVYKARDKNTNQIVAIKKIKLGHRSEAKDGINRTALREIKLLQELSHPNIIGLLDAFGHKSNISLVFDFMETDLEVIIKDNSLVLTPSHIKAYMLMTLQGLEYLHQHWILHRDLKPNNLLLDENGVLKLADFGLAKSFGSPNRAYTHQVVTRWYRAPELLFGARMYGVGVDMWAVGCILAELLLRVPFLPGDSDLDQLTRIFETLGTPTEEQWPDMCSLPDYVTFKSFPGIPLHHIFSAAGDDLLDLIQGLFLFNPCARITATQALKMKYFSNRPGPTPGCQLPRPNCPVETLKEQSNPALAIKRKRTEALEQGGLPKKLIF
Sequence (P51946 whole entry partner): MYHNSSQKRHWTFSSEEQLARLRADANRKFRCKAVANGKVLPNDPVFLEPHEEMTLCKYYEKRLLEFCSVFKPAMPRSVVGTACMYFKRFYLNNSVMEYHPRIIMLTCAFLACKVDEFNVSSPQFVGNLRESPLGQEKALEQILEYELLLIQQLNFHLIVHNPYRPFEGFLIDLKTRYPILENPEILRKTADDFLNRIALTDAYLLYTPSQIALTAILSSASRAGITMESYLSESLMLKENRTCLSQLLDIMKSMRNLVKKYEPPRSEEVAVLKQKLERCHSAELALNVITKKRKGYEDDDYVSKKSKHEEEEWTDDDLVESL
Sequence (P51948 whole entry partner): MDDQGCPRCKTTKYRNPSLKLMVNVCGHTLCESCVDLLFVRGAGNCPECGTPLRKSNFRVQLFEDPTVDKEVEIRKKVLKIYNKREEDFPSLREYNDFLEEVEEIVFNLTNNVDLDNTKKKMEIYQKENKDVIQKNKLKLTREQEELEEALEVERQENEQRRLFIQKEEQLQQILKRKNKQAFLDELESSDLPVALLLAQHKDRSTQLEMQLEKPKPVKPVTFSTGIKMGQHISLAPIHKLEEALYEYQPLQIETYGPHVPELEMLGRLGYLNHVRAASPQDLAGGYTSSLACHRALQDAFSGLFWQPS
procedure.details: CDK7 kinase inhibition assay (Caliper/LabChip EZ Reader)
condition.parameters: CDK7/Cyclin H/MAT1 6 nM, ATP 2 mM, 35 min at 27° C.
Provide the reported IC50 of each item.

Provide IC50, system CDK7/Cyclin H/MAT1 complex (Homo sapiens), entry Cn1cc(-c2ccc3c(-c4nc(N[C@H]5CCCNC5)ncc4C(F)(F)F)c[nH]c3c2)c2cnc(C(F)(F)F)cc21 [Compound 320]
20 to 200 nM

Provide IC50, system CDK7/Cyclin H/MAT1 complex (Homo sapiens), entry Nc1nc2c(-c3ccc4c(-c5nc(NC6CCCNC6)ncc5C(F)(F)F)c[nH]c4c3)cccc2s1 (centres unmarked) [Compound 312]
20 to 200 nM

Provide IC50, system CDK7/Cyclin H/MAT1 complex (Homo sapiens), entry CNC(=O)C1CNCC(Nc2ncc(C(F)(F)F)c(-c3c[nH]c4ccccc34)n2)C1 (centres unmarked) [Compound 253]
< 20 nM

Provide IC50, system CDK7/Cyclin H/MAT1 complex (Homo sapiens), entry CN(C)S(=O)(=O)c1ccc2c(-c3nc(NC4CCCNC4)ncc3C(F)(F)F)c[nH]c2c1 (centres unmarked) [Compound 357]
< 20 nM

Provide IC50, system CDK7/Cyclin H/MAT1 complex (Homo sapiens), entry CCc1cnc(NC2CCCNC2)nc1-c1c[nH]c2c(S(C)(=O)=O)c(C#N)ccc12 (centres unmarked) [Compound 263]
< 20 nM

Provide IC50, system CDK7/Cyclin H/MAT1 complex (Homo sapiens), entry OC1CCC(c2cccc3c(-c4nc(NC5CCCNC5)ncc4C(F)(F)F)c[nH]c23)CC1 (centres unmarked) [Compound 207]
< 20 nM

Provide IC50, system CDK7/Cyclin H/MAT1 complex (Homo sapiens), entry Cn1cc(-c2ccc3c(-c4nc(NC5CCCNC5)ncc4C(F)(F)F)c[nH]c3c2)ccc1=O (centres unmarked) [Compound 321]
< 20 nM

Provide IC50, system CDK7/Cyclin H/MAT1 complex (Homo sapiens), entry CC(C)c1cnc(N[C@H]2CCCNC2)nc1-c1n[nH]c2nc(C#N)ccc12 [Compound 276]
20 to 200 nM
